B1: library; a variant is named by its letters at N, in order (parent)
chain: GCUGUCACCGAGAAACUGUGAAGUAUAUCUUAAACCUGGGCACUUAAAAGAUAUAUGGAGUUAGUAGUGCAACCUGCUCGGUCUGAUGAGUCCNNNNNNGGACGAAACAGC

variants of: B1; test: normalized RNA/DNA level with ligand (relative to sTRSVctl = 100) (log10 (% of sTRSVctl)); HEK293T; ligand: cyclic di-GMP (c-di-GMP-II aptamer); ligand concentration (+) RNA-Seq: 1 mM; higher = less ribozyme self-cleavage, higher mRNA level; conditions: reporter: mCherry (pCS4076), ligand present: yes
Reported Endpoint: normalized RNA/DNA level with ligand (log10)

- GCUGUCACCGAGAAACUGUGAAGUAUAUCUUAAACCUGGGCACUUAAAAGAUAUAUGGAGUUAGUAGUGCAACCUGCUCGGUCUGAUGAGUCCGAGUGUGGACGAAACAGC [GAGUGU]: 1.89
- GCUGUCACCGAGAAACUGUGAAGUAUAUCUUAAACCUGGGCACUUAAAAGAUAUAUGGAGUUAGUAGUGCAACCUGCUCGGUCUGAUGAGUCCGCAAGGGGACGAAACAGC [GCAAGG]: 1.57
- GCUGUCACCGAGAAACUGUGAAGUAUAUCUUAAACCUGGGCACUUAAAAGAUAUAUGGAGUUAGUAGUGCAACCUGCUCGGUCUGAUGAGUCCCAUAACGGACGAAACAGC [CAUAAC]: 1.75
- GCUGUCACCGAGAAACUGUGAAGUAUAUCUUAAACCUGGGCACUUAAAAGAUAUAUGGAGUUAGUAGUGCAACCUGCUCGGUCUGAUGAGUCCCCUCUAGGACGAAACAGC [CCUCUA]: 1.68
- GCUGUCACCGAGAAACUGUGAAGUAUAUCUUAAACCUGGGCACUUAAAAGAUAUAUGGAGUUAGUAGUGCAACCUGCUCGGUCUGAUGAGUCCGGUUAGGGACGAAACAGC [GGUUAG]: 1.7
- GCUGUCACCGAGAAACUGUGAAGUAUAUCUUAAACCUGGGCACUUAAAAGAUAUAUGGAGUUAGUAGUGCAACCUGCUCGGUCUGAUGAGUCCUUAAUGGGACGAAACAGC [UUAAUG]: 1.79
- GCUGUCACCGAGAAACUGUGAAGUAUAUCUUAAACCUGGGCACUUAAAAGAUAUAUGGAGUUAGUAGUGCAACCUGCUCGGUCUGAUGAGUCCUUCUUGGGACGAAACAGC [UUCUUG]: 1.86
- GCUGUCACCGAGAAACUGUGAAGUAUAUCUUAAACCUGGGCACUUAAAAGAUAUAUGGAGUUAGUAGUGCAACCUGCUCGGUCUGAUGAGUCCCGCAAGGGACGAAACAGC [CGCAAG]: 1.86
- GCUGUCACCGAGAAACUGUGAAGUAUAUCUUAAACCUGGGCACUUAAAAGAUAUAUGGAGUUAGUAGUGCAACCUGCUCGGUCUGAUGAGUCCUCUACAGGACGAAACAGC [UCUACA]: 1.86
- GCUGUCACCGAGAAACUGUGAAGUAUAUCUUAAACCUGGGCACUUAAAAGAUAUAUGGAGUUAGUAGUGCAACCUGCUCGGUCUGAUGAGUCCCCUUCAGGACGAAACAGC [CCUUCA]: 1.72
- GCUGUCACCGAGAAACUGUGAAGUAUAUCUUAAACCUGGGCACUUAAAAGAUAUAUGGAGUUAGUAGUGCAACCUGCUCGGUCUGAUGAGUCCGACUAUGGACGAAACAGC [GACUAU]: 1.81
- GCUGUCACCGAGAAACUGUGAAGUAUAUCUUAAACCUGGGCACUUAAAAGAUAUAUGGAGUUAGUAGUGCAACCUGCUCGGUCUGAUGAGUCCAUAGGCGGACGAAACAGC [AUAGGC]: 1.76
- GCUGUCACCGAGAAACUGUGAAGUAUAUCUUAAACCUGGGCACUUAAAAGAUAUAUGGAGUUAGUAGUGCAACCUGCUCGGUCUGAUGAGUCCAGAAGAGGACGAAACAGC [AGAAGA]: 1.57
- GCUGUCACCGAGAAACUGUGAAGUAUAUCUUAAACCUGGGCACUUAAAAGAUAUAUGGAGUUAGUAGUGCAACCUGCUCGGUCUGAUGAGUCCUUUAAGGGACGAAACAGC [UUUAAG]: 1.85
- GCUGUCACCGAGAAACUGUGAAGUAUAUCUUAAACCUGGGCACUUAAAAGAUAUAUGGAGUUAGUAGUGCAACCUGCUCGGUCUGAUGAGUCCCGAGAUGGACGAAACAGC [CGAGAU]: 1.76
- GCUGUCACCGAGAAACUGUGAAGUAUAUCUUAAACCUGGGCACUUAAAAGAUAUAUGGAGUUAGUAGUGCAACCUGCUCGGUCUGAUGAGUCCGACGUGGGACGAAACAGC [GACGUG]: 1.83
- GCUGUCACCGAGAAACUGUGAAGUAUAUCUUAAACCUGGGCACUUAAAAGAUAUAUGGAGUUAGUAGUGCAACCUGCUCGGUCUGAUGAGUCCAACUGGGGACGAAACAGC [AACUGG]: 1.77
- GCUGUCACCGAGAAACUGUGAAGUAUAUCUUAAACCUGGGCACUUAAAAGAUAUAUGGAGUUAGUAGUGCAACCUGCUCGGUCUGAUGAGUCCGAGCUUGGACGAAACAGC [GAGCUU]: 1.9
- GCUGUCACCGAGAAACUGUGAAGUAUAUCUUAAACCUGGGCACUUAAAAGAUAUAUGGAGUUAGUAGUGCAACCUGCUCGGUCUGAUGAGUCCAGGGGCGGACGAAACAGC [AGGGGC]: 1.83
- GCUGUCACCGAGAAACUGUGAAGUAUAUCUUAAACCUGGGCACUUAAAAGAUAUAUGGAGUUAGUAGUGCAACCUGCUCGGUCUGAUGAGUCCUUAGGGGGACGAAACAGC [UUAGGG]: 1.8
- GCUGUCACCGAGAAACUGUGAAGUAUAUCUUAAACCUGGGCACUUAAAAGAUAUAUGGAGUUAGUAGUGCAACCUGCUCGGUCUGAUGAGUCCUGGAAUGGACGAAACAGC [UGGAAU]: 1.77
- GCUGUCACCGAGAAACUGUGAAGUAUAUCUUAAACCUGGGCACUUAAAAGAUAUAUGGAGUUAGUAGUGCAACCUGCUCGGUCUGAUGAGUCCCGGUAUGGACGAAACAGC [CGGUAU]: 1.51

# credit: the supplement of paper PMC6757056
